Target: Feline FcRn complex (FcRn-alpha subunit and beta-microglobulin) (feline)
Experiment: SPR (Biacore), feline FcRn captured on SA chip, IgG flowed over, pH 6
readout type: pKd
Remember, pKd is on a log scale: it is -log10 of the molar concentration.

Which pKd is reported for this binder? feline IgG1a Fc mutant Q311L, S428Y (antibody, part only; not given: Variable domains, not shown: another chain or arm of the molecule) constant: ASTTAPSVFPLAPSCGTTSGATVALACLVLGYFPEPVTVSWNSGALTSGVHTFPAVLQASGLYSLSSMVTVPSSRWLSDTFTCNVAHPPSNTKVDKTVRKTDHPPGPKPCDCPKCPPPEMLGGPSIFIFPPKPKDTLSISRTPEVTCLVVDLGPDDSDVQITWFVDNTQVYTAKTSPREEQFNSTYRVVSVLPILHLDWLKGKEFKCKVNSKSLPSPIERTISKAKGQPHEPQVYVLPPAQEELSRNKVSVTCLIKSFHPPDIAVEWEITGQPEPENNYRTTPPQLDSDGTYFVYSKLSVDRSHWQRGNTYTCSVYHEALHSHHTQKSLTQSPGK
8.32

Same for feline IgG1a Fc mutant Q311R, S428L (antibody, part only; not given: Variable domains, not shown: another chain or arm of the molecule; small tags and cut ends) constant: ASTTAPSVFPLAPSCGTTSGATVALACLVLGYFPEPVTVSWNSGALTSGVHTFPAVLQASGLYSLSSMVTVPSSRWLSDTFTCNVAHPPSNTKVDKTVRKTDHPPGPKPCDCPKCPPPEMLGGPSIFIFPPKPKDTLSISRTPEVTCLVVDLGPDDSDVQITWFVDNTQVYTAKTSPREEQFNSTYRVVSVLPILHRDWLKGKEFKCKVNSKSLPSPIERTISKAKGQPHEPQVYVLPPAQEELSRNKVSVTCLIKSFHPPDIAVEWEITGQPEPENNYRTTPPQLDSDGTYFVYSKLSVDRSHWQRGNTYTCSVLHEALHSHHTQKSLTQSPGK
8.26

Same for feline IgG1a Fc mutant Q311W, S428L (antibody, part only; not given: Variable domains, not shown: another chain or arm of the molecule; small tags and cut ends) constant: ASTTAPSVFPLAPSCGTTSGATVALACLVLGYFPEPVTVSWNSGALTSGVHTFPAVLQASGLYSLSSMVTVPSSRWLSDTFTCNVAHPPSNTKVDKTVRKTDHPPGPKPCDCPKCPPPEMLGGPSIFIFPPKPKDTLSISRTPEVTCLVVDLGPDDSDVQITWFVDNTQVYTAKTSPREEQFNSTYRVVSVLPILHWDWLKGKEFKCKVNSKSLPSPIERTISKAKGQPHEPQVYVLPPAQEELSRNKVSVTCLIKSFHPPDIAVEWEITGQPEPENNYRTTPPQLDSDGTYFVYSKLSVDRSHWQRGNTYTCSVLHEALHSHHTQKSLTQSPGK
8.09

Consider now this further binder.
Which pKd is reported for this binder? feline IgG1a Fc mutant S428L, S252W (antibody, part only; not given: Variable domains, not shown: another chain or arm of the molecule; small tags and cut ends) constant: ASTTAPSVFPLAPSCGTTSGATVALACLVLGYFPEPVTVSWNSGALTSGVHTFPAVLQASGLYSLSSMVTVPSSRWLSDTFTCNVAHPPSNTKVDKTVRKTDHPPGPKPCDCPKCPPPEMLGGPSIFIFPPKPKDTLWISRTPEVTCLVVDLGPDDSDVQITWFVDNTQVYTAKTSPREEQFNSTYRVVSVLPILHQDWLKGKEFKCKVNSKSLPSPIERTISKAKGQPHEPQVYVLPPAQEELSRNKVSVTCLIKSFHPPDIAVEWEITGQPEPENNYRTTPPQLDSDGTYFVYSKLSVDRSHWQRGNTYTCSVLHEALHSHHTQKSLTQSPGK
8.21

# credit: patent US20240400708A1
